Lab note: IC50 readings collected with Cholinesterase (Homo sapiens, UniProt P06276) for the following compounds.
Sequence (P06276 whole entry): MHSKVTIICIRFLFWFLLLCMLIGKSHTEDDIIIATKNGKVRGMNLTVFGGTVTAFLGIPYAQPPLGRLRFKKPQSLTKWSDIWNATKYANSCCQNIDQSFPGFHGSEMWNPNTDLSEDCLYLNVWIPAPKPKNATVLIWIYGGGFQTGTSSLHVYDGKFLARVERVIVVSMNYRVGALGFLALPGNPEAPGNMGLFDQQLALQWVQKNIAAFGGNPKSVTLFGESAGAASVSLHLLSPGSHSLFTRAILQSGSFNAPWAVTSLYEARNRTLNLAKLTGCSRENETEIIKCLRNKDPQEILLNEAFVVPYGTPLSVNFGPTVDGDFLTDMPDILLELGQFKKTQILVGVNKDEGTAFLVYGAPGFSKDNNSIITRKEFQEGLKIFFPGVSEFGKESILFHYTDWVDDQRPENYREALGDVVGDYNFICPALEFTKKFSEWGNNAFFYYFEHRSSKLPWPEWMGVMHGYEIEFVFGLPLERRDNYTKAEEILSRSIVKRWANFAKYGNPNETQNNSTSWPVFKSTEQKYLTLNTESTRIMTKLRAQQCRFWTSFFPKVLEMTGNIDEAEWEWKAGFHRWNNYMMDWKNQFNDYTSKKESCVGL

{"columns": ["Compound", "U", "Bound type", "IC50"],
 "data": [
  ["COc1ccc2c(c1)[nH]c1c(CC=C(C)C)c(O)c(C=O)cc12", "µM", ">", 100],
  ["CC(C)=CCc1c(O)c(C=O)cc2c1[nH]c1ccccc12 [HEPTAPHYLLINE]", "µM", ">", 100],
  ["COc1ccc2c(c1)[nH]c1c(CC=C(C)C)c(O)c(/C=N/CCCCCNc3c4c(nc5ccccc35)CCCC4)cc12", "µM", "=", 52.1],
  ["CC(C)=CCc1c(O)c(/C=N/CCCCCNc2c3c(nc4ccccc24)CCCC3)cc2c1[nH]c1ccccc12", "µM", "=", 19.4]
]}

====

System: NG108-15
Test: cells
Settings: Murinae, NG108-15, read-out: Activity
Description: Neuroprotective activity against H2O2-induced oxidative stress in mouse/rat NG108-15 cells assessed as cell viability at 100 uM incubated for 2 hrs prior to H2O2 challenge for 2 hrs by MTT assay
Please use 1 for viability at 100 µM under 70% and 0 for everything else, ties included.

{"columns": ["Molecule", "Group"],
 "data": [
  ["COc1ccc2c(c1)[nH]c1c(CC=C(C)C)c(O)c(/C=N/CCCCCNc3c4c(nc5ccccc35)CCCC4)cc12", 0],
  ["CC(C)=CCc1c(O)c(C=O)cc2c1[nH]c1ccccc12 [HEPTAPHYLLINE]", 1],
  ["COc1ccc2c(c1)[nH]c1c(CC=C(C)C)c(O)c(/C=N/CCCNc3c4c(nc5ccccc35)CCCC4)cc12", 0],
  ["COc1ccc2c(c1)[nH]c1c(CC=C(C)C)c(O)c(C=O)cc12", 1]
]}
